B1: BRF1 (parent)
chain: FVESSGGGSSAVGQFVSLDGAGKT

Variants of: B1
experiment.notes: protein stability index of a GFP-peptide fusion (GPS, HEK-293T) (PSI 1-6); higher = more stable;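 further: lentivirally expressed fusions sorted by FACS into six bins by GFP to DsRed ratio, PSI derived from sequencing read proportions per bin multiplied by bin number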
measurement.parameters: c terminus: a fixed tail appended
The recorded protein stability index of each item maps onto one of these classes: low range (below 2), mid range (2 to below 3), high range (3 or more)

D19M
mid range
G6R
mid range
S17T
mid range
L18S
mid range
F1S
high range
G22H
mid range
F15Q
mid range
G22K
low range
G7W
mid range
G13C
low range
S4Q
mid range
V2F
high range
S17L
mid range
T24V
mid range
S4M
low range
S4N
mid range
V16W
high range
E3L
low range
T24Y
low range
K23V
mid range
S5H
low range
G20T
mid range
L18H
high range
S17K
low range
T24R
high range
F1W
high range
S10C
low range
D19P
mid range
L18D
mid range
V16G
mid range
S17Y
mid range
G22I
mid range
G8E
high range
G20I
mid range
G7H
low range
S9I
mid range
G7P
mid range
G20D
mid range
V2Y
high range
A21D
high range
S9F
low range
K23F
low range
G22C
low range
S10Q
mid range
S9Y
mid range
S5V
low range
G8L
mid range

All values here come from the supplement of paper PMC10567573.
